FYI, the data here is from patent US12600728B2.

Molecular target: recombinant human IL-17AA (Homo sapiens, UniProt Q16552)
Sequence (Q16552 24-155): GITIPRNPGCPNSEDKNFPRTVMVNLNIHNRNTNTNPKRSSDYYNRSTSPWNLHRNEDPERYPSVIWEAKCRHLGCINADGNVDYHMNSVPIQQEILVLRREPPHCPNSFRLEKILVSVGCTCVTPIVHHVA
Experiment: IL-6 release from NHDF cells, IL-17AA plus TNF-α stimulation
Type: cell-based
Conditions: NHDF cells, IL-17AA 30 pM plus TNF-α 6 pM, 24 hours, IL-6 by ELISA; read-out: IL17AA + TNF IC50 IL-6
MEASUREMENT_NAME: IC50 (µM)

Record excerpt, results attached:
COMPOUND: CC(=O)N1CCn2c(ccc2C(=O)N[C@H](C(=O)Nc2ccc(-c3c(Cl)cc[n+]([O-])c3C)c(F)c2)C2CCCCCC2)C1
MEASUREMENT_NAME: IC50
RESULT: 0.007
//
COMPOUND: Cc1c(-c2ccc(NC(=O)[C@@H](NC(=O)c3ccnn3C)[C@H]3CCCC(F)(F)C3)cc2F)c(Cl)cc[n+]1[O-]
MEASUREMENT_NAME: IC50
RESULT: 0.008
//
COMPOUND: Cc1c(-c2ccc(NC(=O)[C@@H](NC(=O)c3ccc4n3CCN(C)C4)C3CCCCC3)cc2F)c(Cl)cc[n+]1[O-]
MEASUREMENT_NAME: IC50
RESULT: 0.008
//
COMPOUND: Cc1c(-c2ccc(NC(=O)[C@@H](NC(=O)c3ccnn3C(C)C)C3CCCCC3)cc2F)ccc[n+]1[O-]
MEASUREMENT_NAME: IC50
RESULT: 0.035
//
COMPOUND: Cc1cc[n+]([O-])c(C)c1-c1ccc(NC(=O)[C@@H](NC(=O)c2ccnn2C)C2CCCCC2)cc1F
MEASUREMENT_NAME: IC50
RESULT: 0.019
//
COMPOUND: Cc1c(-c2ccc(NC(=O)[C@@H](NC(=O)c3ccnn3C)C3CCCCC3)cc2F)c(Cl)cc[n+]1[O-] [Example 2]
MEASUREMENT_NAME: IC50
RESULT: 0.015

1 = CCn1nccc1C(=O)NC(C(=O)Nc1ccc(-c2c(Cl)cc[n+]([O-])c2C)c(F)c1)[C@H]1C[C@@H]2C[C@@H]2C1 (some centres unmarked)
2 = Cc1c[n+]([O-])cc(C)c1-c1ccc(NC(=O)[C@@H](NC(=O)c2ccnn2C(C)C)C2CCCCCC2)cc1
3 = Cc1c(-c2ccc(NC(=O)[C@@H](NC(=O)c3ccc4n3CCN(C)C4)C3CCCCC3)cc2F)ccc[n+]1[O-]
4 = CCn1nccc1C(=O)N[C@H](C(=O)Nc1ccc(-c2c(C)cc[n+]([O-])c2C)cc1)C1CCCC1
5 = CCc1nocc1C(=O)N[C@H](C(=O)Nc1ccc(-c2c(C)cc[n+]([O-])c2C)cc1)C1CCCC1
Challenge: Arrange these 5 compounds in increasing order of IC50. Sort and list the labels as requested.
Response given: 1, 2, 3, 5, 4

I = Cc1c(-c2c(F)cc(NC(=O)[C@@H](NC(=O)c3ccnn3C)C3CCCCC3)cc2F)c(Cl)cc[n+]1[O-]
II = Cc1c(-c2ccc(NC(=O)[C@@H](NC(=O)c3ccnn3C)C3CCC(F)(F)CC3)cc2)c(Cl)cc[n+]1[O-]
Challenge: Pick one, I or II : lowest reported IC50. To answer, give the label that identifies your chosen option.
Response given: I
(I: 0.016 µM, II: 0.08 µM)
